Please provide measured Saint_SARS2 for the entries that follow.
Test system: SARS-CoV-1, MERS-CoV and SARS-CoV-2 proteins in HEK293T cells
Design: species or system human
// no unit, no text: just the number

Q: Entry M-Q8TBF5 (protein, UniProt Q8TBF5 22-258, looked up, prey of SARS-CoV-2 M) GPI …: LTRGPAAAFTAARSDAGIRAMCSEIILRQEVLKDGFHRDLLIKVKFGESIEDLHTCRLLIKQDIPAGLYVDPYELASLRERNITEAVMVSENFDIEAPNYLSKESEVLIYARRDSQCIDCFQAFLPVHCRYHRPHSEDGEASIVVNNPDLLMFCDQEFPILKCWAHSEVAAPCALENEDICQWNKMKYKSVYKNVILQVPVGLTVHTSLVCSVTLLITILCSTLILVAVFKYGHFSL needs its Saint_SARS2 filled in; supply it.
Result: 0.33

Q: Consider the molecule M-Q9BQT8 (protein, UniProt Q9BQT8 1-299, looked up, interaction partner of viral M protein) Mitochondrial …: MSAKPEVSLVREASRQIVAGGSAGLVEICLMHPLDVVKTRFQIQRCATDPNSYKSLVDSFRMIFQMEGLFGFYKGILPPILAETPKRAVKFFTFEQYKKLLGYVSLSPALTFAIAGLGSGLTEAIVVNPFEVVKVGLQANRNTFAEQPSTVGYARQIIKKEGWGLQGLNKGLTATLGRHGVFNMVYFGFYYNVKNMIPVNKDPILEFWRKFGIGLLSGTIASVINIPFDVAKSRIQGPQPVPGEIKYRTCFKTMATVYQEEGILALYKGLLPKIMRLGPGGAVMLLVYEYTYSWLQENW . State its measured Saint_SARS2.
Result: 0.65

Where do the numbers come from? From patent US20230395193A1.
